test: Pharmacokinetics assay in SD rats (LC/MS/MS plasma concentration); format: in vivo; conditions: both sexes, rat, plasma, intravenous injection, 15 mg/kg, read-out: Half-Life t1/2 (converted)
Property Measured: half-life (h)

a: CNC(=O)c1nc(C(F)(F)F)n2c1CN(C(=O)c1cc(Cc3n[nH]c(=O)c4ccccc34)ccc1F)CC2
b: CCNC(=O)c1nc(C(F)(F)F)n2c1CN(C(=O)c1cc(Cc3n[nH]c(=O)c4ccccc34)ccc1F)CC2
Higher half-life: a or b ? Refer to your chosen entry by its label in the reply.
a
(a: 5.05 h, b: 0.94 h)

###

Assay: Pharmacokinetics assay in SD rats (LC/MS/MS plasma concentration)
Type: in vivo
Settings: both sexes, rat, plasma, oral gavage, 15 mg/kg, read-out: Mean Residence Time MRT
Method: The pharmacokinetic behavior of the compounds of the present invention was studied and evaluated in rats. 24 Healthy adult SD rats, male and female in half, were purchased from SINO-BRITSH SIPPR/BK LAB. […] 20 μL of rat blank plasmas taken at various time points after administration were added with 50 μL of internal standard solution and 140 μL of methanol and mixed for 3 minutes by a vortexer. […] 20 μL of the supernatant was analyzed by LC-MS/MS. […]
Property Measured: MRT (h)

A: O=C(c1cc(Cc2n[nH]c(=O)c3ccccc23)ccc1F)N1CCn2nc(C(F)(F)F)nc2C1 [Example 19]
B: CCNC(=O)c1nc(C(F)(F)F)n2c1CN(C(=O)c1cc(Cc3n[nH]c(=O)c4ccccc34)ccc1F)CC2 [Example 7]
C: CNC(=O)c1nc(C(F)(F)F)n2c1CN(C(=O)c1cc(Cc3n[nH]c(=O)c4ccccc34)ccc1F)CC2 [Example 13]
Order the items by recorded MRT; the first position goes to the largest value. Lab note: record answer as labels in requested order.
B, A, C

###

assay: Pharmacokinetics assay in SD rats (LC/MS/MS plasma concentration); format: in vivo; settings: both sexes, rat, plasma, intravenous injection, 15 mg/kg, read-out: Mean Residence Time MRT
Property Measured: MRT (h)

CNC(=O)c1nc(C(F)(F)F)n2c1CN(C(=O)c1cc(Cc3n[nH]c(=O)c4ccccc34)ccc1F)CC2	0.89
CCNC(=O)c1nc(C(F)(F)F)n2c1CN(C(=O)c1cc(Cc3n[nH]c(=O)c4ccccc34)ccc1F)CC2	1.25

###

test: Pharmacokinetics assay in SD rats (LC/MS/MS plasma concentration); type: in vivo; conditions: both sexes, rat, plasma, intravenous injection, 15 mg/kg, read-out: Area Under Curve AUC
Property Measured: AUC (ng·h/mL)

CNC(=O)c1nc(C(F)(F)F)n2c1CN(C(=O)c1cc(Cc3n[nH]c(=O)c4ccccc34)ccc1F)CC2 [Example 13]	29400
CCNC(=O)c1nc(C(F)(F)F)n2c1CN(C(=O)c1cc(Cc3n[nH]c(=O)c4ccccc34)ccc1F)CC2 [Example 7]	34800

###

test: Pharmacokinetics assay in SD rats (LC/MS/MS plasma concentration); assay type: in vivo; conditions: both sexes, rat, plasma, oral gavage, 15 mg/kg, read-out: Area Under Curve AUC
Property Measured: AUC (ng·h/mL)

CNC(=O)c1nc(C(F)(F)F)n2c1CN(C(=O)c1cc(Cc3n[nH]c(=O)c4ccccc34)ccc1F)CC2	4300

I: CCNC(=O)c1nc(C(F)(F)F)n2c1CN(C(=O)c1cc(Cc3n[nH]c(=O)c4ccccc34)ccc1F)CC2
II: O=C(c1cc(Cc2n[nH]c(=O)c3ccccc23)ccc1F)N1CCn2nc(C(F)(F)F)nc2C1
Which numeric AUC is bigger, that of I or that of II ? Selection: enter the item's label.
II
(II: 12600 ng·h/mL, I: 4500 ng·h/mL)

###

test: Pharmacokinetics assay in SD rats (LC/MS/MS plasma concentration); type: in vivo; settings: both sexes, rat, plasma, oral gavage, 15 mg/kg, read-out: Half-Life t1/2 (converted)
Property Measured: half-life (h)

a: O=C(c1cc(Cc2n[nH]c(=O)c3ccccc23)ccc1F)N1CCn2nc(C(F)(F)F)nc2C1
b: CNC(=O)c1nc(C(F)(F)F)n2c1CN(C(=O)c1cc(Cc3n[nH]c(=O)c4ccccc34)ccc1F)CC2
c: CCNC(=O)c1nc(C(F)(F)F)n2c1CN(C(=O)c1cc(Cc3n[nH]c(=O)c4ccccc34)ccc1F)CC2
Order the above compounds by increasing half-life. Quick reminder: the answer is the labels in the order asked.
c, b, a
(c: 3.87 h, b: 6.01 h, a: 9.79 h)

###

experiment: Pharmacokinetics assay in SD rats (LC/MS/MS plasma concentration); format: in vivo; conditions: both sexes, rat, plasma, po, 15 mg/kg
Property Measured: bioavailability (%)

CNC(=O)c1nc(C(F)(F)F)n2c1CN(C(=O)c1cc(Cc3n[nH]c(=O)c4ccccc34)ccc1F)CC2 [Example 13]	16.8
CCNC(=O)c1nc(C(F)(F)F)n2c1CN(C(=O)c1cc(Cc3n[nH]c(=O)c4ccccc34)ccc1F)CC2 [Example 7]	12.9
